# affinity per record follows
target: Candida krusei clinical isolate, whole cells (Candida krusei); experiment: FACS, IgG on fixed cells

BINDER	READOUT_NAME	REPORTED_RESULT
A4F10 IgG (antibody, V domains shown) VH: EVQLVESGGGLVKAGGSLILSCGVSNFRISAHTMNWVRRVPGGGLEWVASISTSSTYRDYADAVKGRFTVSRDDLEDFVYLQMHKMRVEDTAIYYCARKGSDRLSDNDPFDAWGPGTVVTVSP VL: GVVMTQSPSTLSASVGDTITITCRASQSIETWLAWYQQKPGKAPKLLIYKASTLKTGVPSRFSGSGSGTEFTLTISGLQFDDFATYHCQHYTDHYGATFGQGTRVEIKR	affinity	50 nM
A1G7 IgG (antibody, V domains shown) VH: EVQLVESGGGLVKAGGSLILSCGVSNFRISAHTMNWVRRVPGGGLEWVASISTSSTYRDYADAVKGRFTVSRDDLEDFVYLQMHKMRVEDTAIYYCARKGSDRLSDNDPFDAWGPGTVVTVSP VL: GVVMTQSPSTLSASVGDTITITCRASQSIETWLAWYQQKPGKAPKLLIYKASTLKTGVPSRFSGSGSGTEFTLTISGLQFDDFATYHCQHYTDHRGATFGQGTRVEIKR	affinity	50 nM

Provide one value: measured affinity of P1F9 IgG (antibody, V domains shown) VH: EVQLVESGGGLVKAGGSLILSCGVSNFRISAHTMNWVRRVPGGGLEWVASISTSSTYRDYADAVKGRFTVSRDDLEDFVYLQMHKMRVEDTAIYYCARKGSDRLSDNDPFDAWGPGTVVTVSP VL: GVVMTQSPSTLSASVGDTITITCRASQSIETWLAWYQQKPGKAPKLLIYKASTLKTGVPSRFSGSGSGTEFTLTISGLQFDDFATYHCQHYRAHTGATFGQGTRVEIKR 27 nM
